A compilation of Ki values for Tyrosine-protein phosphatase non-receptor type 2 (Homo sapiens) from the published literature.
REPORTED_METRIC: Ki (µM)

Below, each entry is followed by its recorded Ki result.
# COMPOUND, MEASUREMENT_UNITS, Ki
rows = [
    ("COc1ccc(NS(=O)(=O)C(Cc2ccc(NC(=O)C(=O)O)cc2)c2nc3ccccc3o2)cc1 (stereo not drawn)", "µM", 134),
    ("O=C(O)C(=O)Nc1ccc(CC(c2nc3ccccc3o2)S(=O)(=O)N(Cc2ccc(OC(F)(F)F)cc2)Cc2ccc(OC(F)(F)F)cc2)cc1 (stereo not drawn)", "µM", 17.2),
    ("CC(C)(C)NS(=O)(=O)C(Cc1ccc(NC(=O)C(=O)O)cc1)c1nc2ccccc2o1 (stereo not drawn)", "µM", 135),
]

I. CC(=O)NS(=O)(=O)C(Cc1ccc(NC(=O)C(=O)O)cc1)c1nc2ccccc2o1 (stereo not drawn)
II. CCc1cc(CC(NC(C)=O)C(=O)NCCCCC(=O)N[C@H](C(=O)O)C(C)CC)ccc1N(C(=O)C(=O)O)c1ccccc1C(=O)O (stereo partly drawn)
III. COC(=O)c1c(O)cccc1OCCCCNC(=O)C(Cc1ccc(OC(C(=O)O)C(=O)O)cc1)NC(=O)OC(C)(C)C (stereo not drawn)
Exam item: Hello, I need these entries ordered by Ki, highest reading first. Thanks! Note for the reader: the ranking is given by listing the labels in the order requested.
Marked response: I, III, II
(I: 86.5 µM, III: 24.8 µM, II: 0.4 µM)

P. CCSCC[C@H](NC(=O)CCCCNC(=O)C(Cc1ccc(N(C(=O)C(=O)O)c2ccccc2C(=O)O)c(CC)c1)NC(C)=O)C(=O)O (stereo partly drawn)
Q. COC(=O)c1c(O)cccc1OC/C=C/c1cccc(-c2onc(C(=O)O)c2CO)c1
Exam item: When their Ki values are compared, which is larger, P or Q ? Reply briefly: the label of your chosen item.
Marked response: Q

---

A compilation of Ki values for UniProt:P17706 from the published literature.
REPORTED_METRIC: Ki (µM)

Below, each entry is followed by its recorded Ki result.
# COMPOUND, Ki [µM]
measured = [
    ("O=C(O)c1cc(Cc2cc(Cc3ccccc3)c(O)c(C(=O)O)c2)cc(Cc2ccccc2)c1O", 25),
    ("O=C(O)COc1c(C(=O)O)sc2c1sc1ccccc12", 4.1),
    ("CCc1cc(CC(NC(C)=O)C(=O)NCc2ccc([N+](=O)[O-])cc2)ccc1N(C(=O)C(=O)O)c1ccccc1C(=O)O (configuration not stated)", 0.45),
    ("CCc1cc(CC(NC(C)=O)C(=O)NCCCCOc2ccc(Br)c(O)c2C(=O)OC)ccc1N(C(=O)C(=O)O)c1ccccc1C(=O)O (configuration not stated)", 2.6),
]

a. NS(=O)(=O)C(Cc1ccc(NC(=O)C(=O)O)cc1)c1nc2ccccc2o1 (configuration not stated)
b. COc1ccc(CN(Cc2ccc(OC)cc2)S(=O)(=O)C(Cc2ccc(NC(=O)C(=O)O)cc2)c2nc3ccccc3o2)cc1 (configuration not stated)
c. CCc1cc(CC(NC(C)=O)C(=O)NCCCCOc2ccccc2C(=O)OC)ccc1N(C(=O)C(=O)O)c1ccccc1C(=O)O (configuration not stated)
Exam item: Hello, I need these entries ordered by Ki, highest reading first. Thanks! Note for the reader: the ranking is given by listing the labels in the order requested.
Marked response: a, b, c

1. O=C(O)C(=O)Nc1ccc(CC(c2nc3ccccc3o2)S(=O)(=O)N(Cc2cccc(C(F)(F)F)c2)Cc2cccc(C(F)(F)F)c2)cc1 (configuration not stated)
2. NC(=O)[C@H](Cc1ccc(C(F)(F)P(=O)(O)O)cc1)NC(=O)[C@H](CC(=O)O)NC(=O)Cc1ccc(C(F)(F)P(=O)(O)O)cc1
Exam item: Would you kindly point out which of 1 and 2 has the smaller Ki figure? Reply briefly: the label of your chosen item.
Marked response: 2
(2: 0.026 µM, 1: 21 µM)
